# EXPERIMENTAL SYSTEM: T1, Mouse IL-18BP (amino acids 31-194), biotinylated (mouse, UniProt Q9Z0M9 29-193, biotin on the AviTag (BirA ligase))
# T1 construct: also called mIL-18BP
# T1 sequence: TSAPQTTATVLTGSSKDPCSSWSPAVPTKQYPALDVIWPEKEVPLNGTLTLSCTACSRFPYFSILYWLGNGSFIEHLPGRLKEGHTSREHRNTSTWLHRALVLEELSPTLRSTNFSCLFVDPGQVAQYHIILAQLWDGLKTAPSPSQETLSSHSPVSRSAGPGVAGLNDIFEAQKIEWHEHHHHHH
# PROTOCOL NOTES: SPR; KD ratio relative to WT IL-18; SPR; ratio normalized to WT
# Procedure: Experiments were conducted using a Biacore T100 and carried out at 25° C. Biotinylated IL-18Rα or IL-18BP were immobilized onto a Biacore biotin capture chip (Series S CAP sensor chip, GE Healthcare) to yield an Rmax of ˜50 RU (IL-18Rα) or ˜10 RU (IL-18BP). […] All data were analyzed with the Biacore T100 evaluation software version 2.0 with a 1:1 Langmuir binding model.
For each record, write down the corresponding Dissociation Constant Ratio normalized to WT IL-18.
Numbers only.

Worked set:
>  <BINDER>
SEQ ID NO: 62 (murine DR-IL-18 variant mC1) (ligand, Engineered variant) NFGRLHCTTAVIRNINDQVLFVDKRQPVFEDMTDIDQSASEPQTRLIIYAYVDRRLRGKAVTLSVKDSKMSTLSCKNKIISFEEMDPPENIDDIQSDLIFFQKKVPGHNKMEFESSLYEGHFLACQKEDDAFKLILKKKDENGDKSVMFTLTNLHQS

>  <READOUT NUMBER>
1.44e+07

$$$$
>  <BINDER>
SEQ ID NO: 60 (murine DR-IL-18 variant mCS1) (ligand, Engineered variant) NFGRLHCTTAVIRNINDQVLFVDKRQPVFEDMTDIDQSASEPQTRLIIYGYADSRVRGKAVTLSVKDSKMSTLSCKNKIISFEEMDPPENIDDIQSDLIFFQKRVPGHNKMEFESSLYEGHFLACQKEDDAFKLILKKKDENGDKSVMFTLTNLHQS

>  <READOUT NUMBER>
3.84e+06

$$$$
>  <BINDER>
SEQ ID NO: 67 (murine DR-IL-18 variant mB1) (ligand, Engineered variant) HFGRLHCTTAVIRNINDQVLFVDKRQPVFEDMTDIDQSASEPQTRLIIYGYADSDARAKAVTLSVKDSKMSTLSCKNKIISFEEMDPPENIDDIQSDLIFFQKSVPGHNKMEFESSLYEGHFLACQKEDDAFKLILKKKDENGDKSVMFTVTNLHQS

>  <READOUT NUMBER>
1.15e+07

$$$$
>  <BINDER>
SEQ ID NO: 61 (murine DR-IL-18 variant mCS2) (ligand, Engineered variant) HFGRLHCTTAVIRNINDQVLFVDKRQPVFEDMTDIDQSASEPQTRLIIYAYGDSRARGKAVTLSVKDSKMSTLSCKNKIISFEEMDPPENIDDIQSDLIFFQKRVPGHNKMEFESSLYEGHFLACQKEDDAFKLILKKKDENGDKSVMFTLTNLHQS

>  <READOUT NUMBER>
7.25e+07

$$$$

Now for the binder whose Dissociation Constant Ratio normalized to WT IL-18 we want.
Which Dissociation Constant Ratio normalized to WT IL-18 value is on record for SEQ ID NO: 70 (murine DR-IL-18 variant mA7) (ligand, Engineered variant) YFGRLHCTTAVIRNINDQVLFVDKRQPVFEDMTDIDQSASEPQTRLIIYAYGDNRVRGKAVTLSVKDSKMSTLSCKNKIISFEEMDPPENIDDIQSDLIFFQKRVPGHNKMEFESSLYEGHFLACQKEDDAFKLILKKKDENGDKSVMFTLTNLHQS ?
3.45e+07
